tested on: Escherichia coli TOP10; experiment: shrunken log2 fold change of peptide-encoding DNA abundance (4.5 h post-induction vs induction); higher = less antimicrobial activity (less host growth inhibition); settings: time post-induction: 4.5 h; library: site-saturation at positions 5, 18, 19, 20;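 note: peptides expressed intracellularly from a pBAD plasmid library in pooled LB shake-flask culture, induced with 0.3% L-arabinose, DNA abundance read by NGS, three biological replicates, DESeq2 with apeglm shrinkage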
Response key: Condition met means shrunken log2 fold change >= -0.05; Condition not met means shrunken log2 fold change < -0.05.

> print(dat)
              sequenceinput              class
 1  RRIRGRPPRLPRPRPRPSQMPRP      Condition met
 2  RRIRIRPPRLPRPRPRPLFQPRP  Condition not met
 3  RRIRVRPPRLPRPRPRPYGWPRP  Condition not met
 4  RRIRIRPPRLPRPRPRPIGTPRP  Condition not met
 5  RRIRTRPPRLPRPRPRPPYGPRP  Condition not met
 6  RRIRCRPPRLPRPRPRPWHRPRP      Condition met
 7  RRIRKRPPRLPRPRPRPHFWPRP      Condition met
 8  RRIRWRPPRLPRPRPRPWSCPRP  Condition not met
 9  RRIRKRPPRLPRPRPRPYACPRP      Condition met
10  RRIRWRPPRLPRPRPRPVKSPRP      Condition met
11  RRIRHRPPRLPRPRPRPFTFPRP  Condition not met
12  RRIRQRPPRLPRPRPRPTTWPRP  Condition not met
13  RRIRFRPPRLPRPRPRPFVNPRP  Condition not met
14  RRIRGRPPRLPRPRPRPHPWPRP      Condition met
15  RRIRWRPPRLPRPRPRPGRTPRP      Condition met
